Source: patent US11534441B2

Entries and their IC50 values follow.
Target: MAP4K1 (HPK1) (Homo sapiens (Human), UniProt Q92918)
Sequence (Q92918 whole entry): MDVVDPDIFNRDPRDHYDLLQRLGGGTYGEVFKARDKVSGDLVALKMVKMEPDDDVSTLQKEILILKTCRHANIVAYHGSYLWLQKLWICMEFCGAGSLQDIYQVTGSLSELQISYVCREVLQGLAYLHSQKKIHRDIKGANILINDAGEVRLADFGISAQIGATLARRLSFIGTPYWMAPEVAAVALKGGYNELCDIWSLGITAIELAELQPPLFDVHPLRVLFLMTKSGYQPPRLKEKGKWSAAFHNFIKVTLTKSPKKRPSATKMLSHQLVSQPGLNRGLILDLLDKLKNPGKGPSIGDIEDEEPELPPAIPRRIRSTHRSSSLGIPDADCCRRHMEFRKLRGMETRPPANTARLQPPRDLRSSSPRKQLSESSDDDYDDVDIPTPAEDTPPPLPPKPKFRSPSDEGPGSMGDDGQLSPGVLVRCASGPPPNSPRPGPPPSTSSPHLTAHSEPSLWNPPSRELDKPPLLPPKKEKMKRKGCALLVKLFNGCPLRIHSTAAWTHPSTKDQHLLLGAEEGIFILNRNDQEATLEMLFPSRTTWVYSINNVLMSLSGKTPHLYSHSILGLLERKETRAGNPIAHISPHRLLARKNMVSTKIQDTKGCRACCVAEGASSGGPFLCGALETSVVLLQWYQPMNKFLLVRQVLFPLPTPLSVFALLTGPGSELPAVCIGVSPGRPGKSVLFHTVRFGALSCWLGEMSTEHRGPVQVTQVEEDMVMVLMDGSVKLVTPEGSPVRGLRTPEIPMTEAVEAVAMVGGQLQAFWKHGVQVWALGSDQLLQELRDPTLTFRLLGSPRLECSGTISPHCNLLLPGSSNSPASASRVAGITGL
Test: MAP4K1 (HPK1) biochemical enzymatic activity, electrophoretic mobility shift (EZReader 2), ATP at APPKM (26 μM)
Details: numeric value
Give the quantity in nM, number only.

COMPOUND_STRING	VALUE_UNIT	IC50
COC[C@@](C)(N)c1cnc(C)c2cnc(Nc3ccc4c(n3)[C@@H](C)C(C)(C)OC4=O)cc12	nM	0.19
CC1(C)Cc2nc(Nc3cc4c(C(C)(C)N)ccc(Cl)c4cn3)ccc2C(=O)O1	nM	0.13

Req: Can you look up the measured IC50 of COc1ncc(C(C)(C)N)c2cc(Nc3ccc4c(n3)CC(C)(C)OC4=O)ncc12 for me?
Resp: 0.17

---

Molecular target: UniProt Q92918
Assay: MAP4K1 (HPK1) biochemical enzymatic activity, electrophoretic mobility shift (EZReader 2), ATP at APPKM (26 μM)
Settings: class designation
Entries and their IC50 values follow.

MOLECULE	IC50
CC[C@@]1(C)OC(=O)c2ccc(Nc3cc4c(C(C)(C)N)cnc(OC5CC5)c4cn3)nc21 [Compound 114]	0.31 to 1 nM
C[C@@H]1OC(=O)c2ccc(Nc3cc4c([C@](C)(N)C5CCC5)cnc(OC5CC5)c4cn3)nc2[C@H]1C [Compound 170]	< 0.3 nM

Req: Can you look up the measured IC50 of CNc1ncc(C(C)(C)N)c2cc(Nc3ccc4c(n3)CC(C)(C)OC4=O)ncc12 [Compound 35] for me?
Resp: 0.31 to 1 nM

Req: Can you look up the measured IC50 of COc1ncc(C(C)(C)N)c2cc(Nc3ccc4c(n3)[C@@H](C)COC4=O)ncc12 (single isomer, unassigned) [Compound 22] for me?
Resp: 0.31 to 1 nM

Req: Can you look up the measured IC50 of CC[C@@H](N)c1cnc(C)c2cnc(Nc3ccc4c(n3)[C@@H](C)[C@H](C)OC4=O)cc12 [Compound 202] for me?
Resp: 0.31 to 1 nM

Req: Can you look up the measured IC50 of COc1ncc(C(C)(C)N)c2cc(Nc3ccc4c(n3)[C@@H](C)COC4=O)ncc12 (single isomer, unassigned) [Compound 23] for me?
Resp: < 0.3 nM

Req: Can you look up the measured IC50 of COc1ncc(C(C)(C)N)c2cc(Nc3ccc4c(n3)CC(C)(C)CC4=O)ncc12 [Compound 34] for me?
Resp: < 0.3 nM

Req: Can you look up the measured IC50 of CC[C@H](C)n1nc(Nc2cc3c(C(C)(C)N)cnc(OC)c3cn2)ccc1=O [Compound 14] for me?
Resp: 0.31 to 1 nM

Req: Can you look up the measured IC50 of C[C@@H]1OC(=O)c2ccc(Nc3cc4c([C@@](C)(N)C5CC5)cnc(OC5(C)CC5)c4cn3)nc2[C@H]1C [Compound 88] for me?
Resp: < 0.3 nM

Req: Can you look up the measured IC50 of CC[C@](C)(N)c1cnc(OCC(F)(F)F)c2cnc(Nc3ccc4c(n3)C(C)(C)OC4=O)cc12 (single isomer, unassigned) [Compound 173] for me?
Resp: 1.1 to 10 nM

Req: Can you look up the measured IC50 of CC[C@](C)(N)c1cnc(NC2CC2)c2cnc(Nc3ccc4c(n3)[C@@H](C)[C@H](C)OC4=O)cc12 [Compound 122] for me?
Resp: < 0.3 nM

Req: Can you look up the measured IC50 of COC[C@@](C)(N)c1cnc(OC)c2cnc(Nc3ccc4c(n3)[C@@H](C)C(C)(C)OC4=O)cc12 [Compound 201] for me?
Resp: < 0.3 nM

Req: Can you look up the measured IC50 of C[C@@H]1OC(=O)c2ccc(Nc3cc4c([C@](C)(N)C5CC5)cnc(OC5CC5)c4cn3)nc2[C@@H]1C (single isomer, unassigned) [Compound 155] for me?
Resp: 0.31 to 1 nM

Req: Can you look up the measured IC50 of COc1cnc(C(C)(C)N)c2cc(Nc3ccc4c(n3)CC(C)(C)OC4=O)ncc12 [Compound 46] for me?
Resp: 0.31 to 1 nM

Req: Can you look up the measured IC50 of C[C@@H]1COC(=O)c2ccc(Nc3cc4c([C@](C)(N)C5CC5)cnc(OC5CC5)c4cn3)nc21 (single isomer, unassigned) [Compound 118] for me?
Resp: 1.1 to 10 nM

Req: Can you look up the measured IC50 of C[C@@H](Oc1ncc(C(C)(C)N)c2cc(Nc3ccc4c(n3)CC(C)(C)OC4=O)ncc12)C(F)F (single isomer, unassigned) [Compound 165] for me?
Resp: 1.1 to 10 nM

Req: Can you look up the measured IC50 of C[C@H]1c2nc(Nc3cc4c(C(C)(C)N)cnc(OC5CC5)c4cn3)ccc2C(=O)OC1(C)C [Compound 70] for me?
Resp: 0.31 to 1 nM

Req: Can you look up the measured IC50 of CC(C)(N)c1cnc(OC2CC2)c2cnc(Nc3ccc4c(n3)C(C)(C)OC4=O)cc12 [Compound 105] for me?
Resp: 1.1 to 10 nM
